target: Sodium-dependent serotonin transporter (Rattus norvegicus, UniProt P31652)
Sequence (P31652 whole entry): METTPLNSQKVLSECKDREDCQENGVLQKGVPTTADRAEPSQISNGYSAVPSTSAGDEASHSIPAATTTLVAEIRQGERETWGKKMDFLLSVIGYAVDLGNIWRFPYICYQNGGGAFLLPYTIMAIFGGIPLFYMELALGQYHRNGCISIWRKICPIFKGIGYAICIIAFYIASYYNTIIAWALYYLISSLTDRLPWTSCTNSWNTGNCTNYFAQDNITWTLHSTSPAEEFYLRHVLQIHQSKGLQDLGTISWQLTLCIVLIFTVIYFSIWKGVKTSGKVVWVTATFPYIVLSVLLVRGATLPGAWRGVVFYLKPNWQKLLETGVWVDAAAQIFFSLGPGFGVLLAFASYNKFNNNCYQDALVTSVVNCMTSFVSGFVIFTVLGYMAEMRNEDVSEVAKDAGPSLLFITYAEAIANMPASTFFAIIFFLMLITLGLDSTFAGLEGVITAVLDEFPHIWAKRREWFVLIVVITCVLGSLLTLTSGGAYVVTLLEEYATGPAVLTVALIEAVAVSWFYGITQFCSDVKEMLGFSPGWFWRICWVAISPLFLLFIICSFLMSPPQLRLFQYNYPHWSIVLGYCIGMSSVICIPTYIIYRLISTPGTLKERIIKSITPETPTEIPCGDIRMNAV
pKi: −log10 of the molar value.
Classify by measured pKi: YES if it is equal to or exceeds 6, NO if it is smaller.

CN1C2CC[C@@H]1C[C@H](c1ccc(Cl)cc1)C2c1cc(-c2ccccc2)no1 (some centres not stated)	YES
Cc1ccc(C2CC3CCC(C2c2cc(C)no2)N3C)cc1 (configuration not stated)	YES

Q. Say whether Cc1ccc(C2CC3CCC(C2c2cc(C(C)C)no2)N3C)cc1 (configuration not stated) shows pKi of 6 or more.
A. NO

Q. Given the entry CCc1cc(C2C(c3ccc(Cl)cc3)CC3CCC2N3C)on1 (configuration not stated) , answer whether its pKi meets or surpasses 6.
A. YES

Q. Does the compound Cc1ccc(C2CC3CCC(C2c2cc(C(C)(C)C)no2)N3C)cc1 (configuration not stated) have recorded pKi that is 6 or more?
A. NO
